The reported measurements were obtained from patent US9133183B2.

Target entity: unphosphorylated PDGFRβ kinase (uPDGFRβ, Seq. ID No. 3) (Homo sapiens (Human), UniProt P09619)
Sequence (P09619 557-1106): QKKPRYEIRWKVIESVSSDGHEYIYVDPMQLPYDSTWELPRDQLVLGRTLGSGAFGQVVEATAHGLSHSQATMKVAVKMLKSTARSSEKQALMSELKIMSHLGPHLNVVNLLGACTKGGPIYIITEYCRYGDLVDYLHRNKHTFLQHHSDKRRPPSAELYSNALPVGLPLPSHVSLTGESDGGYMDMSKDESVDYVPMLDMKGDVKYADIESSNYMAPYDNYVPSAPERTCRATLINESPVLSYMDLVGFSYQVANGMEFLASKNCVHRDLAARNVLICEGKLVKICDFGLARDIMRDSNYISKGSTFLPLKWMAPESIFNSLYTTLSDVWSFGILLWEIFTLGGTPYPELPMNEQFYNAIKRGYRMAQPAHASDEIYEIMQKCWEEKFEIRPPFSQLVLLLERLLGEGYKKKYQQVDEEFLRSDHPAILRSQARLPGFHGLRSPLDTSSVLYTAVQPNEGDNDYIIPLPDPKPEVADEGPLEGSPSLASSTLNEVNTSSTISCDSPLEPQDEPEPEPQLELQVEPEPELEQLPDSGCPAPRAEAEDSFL
Test details: Unphosphorylated PDGFRβ kinase assay (coupled pyruvate kinase/lactate dehydrogenase)
Protocol conditions: enzymatic assay, ATP 500 μM
Protocol: Unphosphorylated PDGFRβ (uPDGFRβ) Kinase (Seq. ID No. 3) Assay Activity of unphosphorylated PDGFRβ kinase (uPDGFRβ, Seq. ID No. 3) was determined by following the production of ADP from the kinase reaction with ATP and poly E4Y as substrates through coupling with the pyruvate kinase/lactate dehydrogenase system (e.g., Schindler et al. Science (2000) 289: 1938-1942). In this assay, the oxidation of NADH (thus the decrease at A340 nm) was continuously monitored spectrophometrically. […]
pIC50: −log10 of the molar value.
Measured attribute: pIC50

{"columns": ["Structure as smiles", "Recorded result"],
 "data": [
  ["CCc1nc(NC(=O)N2CCN(C3CCCC3)C2=O)ccc1Oc1ccnc(-c2cnn(C)c2)c1", "< 6.00"],
  ["COC[C@H](C)N1CCN(C(=O)Nc2cc(Cl)c(Oc3ccnc(-c4cnn(C)c4)c3)cc2F)C1=O", "< 6.00"],
  ["COC(C)(C)CCN1CCN(C(=O)Nc2ccc(Oc3ccnc(-c4cnn(C)c4)c3)cn2)C1=O", "6.00 to 7.00"],
  ["Cn1cc(-c2cc(Oc3ccc(NC(=O)N4CCN(C5CCOCC5)C4=O)nc3)ccn2)cn1", "6.00 to 7.00"],
  ["Cc1nc(NC(=O)N2CCN(C3CC3)C2=O)ccc1Oc1ccnc(-c2ccc(C3CCN(C)CC3)cc2)c1", "< 6.00"],
  ["Cc1ccc(-c2cc(Oc3ccc(NC(=O)N4CCN(CC(F)(F)F)C4=O)nc3C)ccn2)cn1", "< 6.00"],
  ["Cn1cc(-c2cc(Oc3cc(F)c(NC(=O)N4CCN(C5COC5)C4=O)cc3Cl)ccn2)cn1", "< 6.00"],
  ["CCN1CCN(C(=O)Nc2ccc(Oc3ccnc(-c4ccc(C5CCN(C)CC5)cc4)c3)c(C)n2)C1=O", "< 6.00"]
]}

###

IC50 reference
Target entity: unphosphorylated c-FMS kinase (uFMS, Seq. ID no. 1) (Homo sapiens (Human))
Sequence (P07333 538-972): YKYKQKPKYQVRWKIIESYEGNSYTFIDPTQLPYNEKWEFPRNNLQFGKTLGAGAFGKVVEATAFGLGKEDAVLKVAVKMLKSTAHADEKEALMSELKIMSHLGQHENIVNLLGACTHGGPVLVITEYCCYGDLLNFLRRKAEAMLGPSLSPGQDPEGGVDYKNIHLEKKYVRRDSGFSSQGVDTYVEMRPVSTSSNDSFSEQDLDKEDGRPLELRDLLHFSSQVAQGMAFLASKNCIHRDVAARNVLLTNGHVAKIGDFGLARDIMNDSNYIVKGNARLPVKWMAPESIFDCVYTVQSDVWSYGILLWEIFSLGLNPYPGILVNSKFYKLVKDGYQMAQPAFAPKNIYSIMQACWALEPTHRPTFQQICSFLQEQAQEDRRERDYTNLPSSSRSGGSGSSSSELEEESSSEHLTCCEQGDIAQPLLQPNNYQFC
Test details: uFMS kinase assay (ADP production coupled to pyruvate kinase/lactate dehydrogenase)
Assay type: biochemical
Protocol conditions: enzymatic assay, ATP 500 μM; read-out: uFMS

{"columns": ["Molecule", "Target entity", "IC50"],
 "data": [
  ["Cc1ccc(-c2cc(Oc3ccc(NC(=O)N4CCN(CC(F)(F)F)C4=O)nc3C)ccn2)cn1", "unphosphorylated c-FMS kinase (uFMS, Seq. ID no. 1) (Homo sapiens (Human))", "10 to 100 nM"],
  ["Cn1cc(-c2cc(Oc3ccc(NC(=O)N4CCN(C5CCOC(C)(C)C5)C4=O)nc3)ccn2)cn1 (centres unmarked)", "unphosphorylated c-FMS kinase (uFMS, Seq. ID no. 1) (Homo sapiens (Human))", "10 to 100 nM"],
  ["Cc1ncc(-c2cc(Oc3ccc(NC(=O)N4CCN(C5CC5)C4=O)nc3C)ccn2)s1", "unphosphorylated c-FMS kinase (uFMS, Seq. ID no. 1) (Homo sapiens (Human))", "10 to 100 nM"],
  ["CN(C)C(=O)Nc1cc(Oc2ccc(NC(=O)N3CCN(C4CCOCC4)C3=O)nc2)ccn1", "unphosphorylated c-FMS kinase (uFMS, Seq. ID no. 1) (Homo sapiens (Human))", "< 10 nM"],
  ["CCN1CCN(C(=O)Nc2ccc(Oc3ccnc(-c4cn(C)cn4)c3)cn2)C1=O", "unphosphorylated c-FMS kinase (uFMS, Seq. ID no. 1) (Homo sapiens (Human))", "10 to 100 nM"],
  ["Cc1nc(NC(=O)N2CCN(C3CC3)C2=O)ccc1Oc1ccnc(-c2ccc(C3CCN(C)CC3)cc2)c1", "unphosphorylated c-FMS kinase (uFMS, Seq. ID no. 1) (Homo sapiens (Human))", "< 10 nM"],
  ["[2H]C([2H])([2H])n1cc(-c2cc(Oc3ccc(NC(=O)N4CCN(CCOC)C4=O)nc3C)ccn2)cn1", "unphosphorylated c-FMS kinase (uFMS, Seq. ID no. 1) (Homo sapiens (Human))", "10 to 100 nM"],
  ["Cn1cc(-c2cc(Oc3cc(F)c(NC(=O)N4CCN(CC(O)C(C)(C)C)C4=O)cc3Cl)ccn2)cn1 (centres unmarked)", "unphosphorylated c-FMS kinase (uFMS, Seq. ID no. 1) (Homo sapiens (Human))", "10 to 100 nM"]
]}

###

IC50 reference
Target entity: unphosphorylated PDGFRβ kinase (uPDGFRβ, Seq. ID No. 3) (Homo sapiens (Human), UniProt P09619)
Test details: Unphosphorylated PDGFRβ kinase assay (coupled pyruvate kinase/lactate dehydrogenase)
Type: biochemical
Protocol conditions: enzymatic assay, ATP 500 μM

{"columns": ["Compound", "IC50"],
 "data": [
  ["Cc1nc(NC(=O)N2CCN(C(C)C)C2=O)ccc1Oc1ccnc(-c2cnn(C)c2)c1 [Example 35]", "100 to 1000 nM"],
  ["CCN1CCN(C(=O)Nc2ccc(Oc3ccnc(-c4cnc(C)o4)c3)cn2)C1=O [Example 117]", "> 1000 nM"],
  ["CCN1CCN(C(=O)Nc2cc(C)c(Oc3ccnc(-n4cnc(C)c4)c3)cn2)C1=O [Example 88]", "> 1000 nM"],
  ["CCN1CCN(C(=O)Nc2ccc(Oc3ccnc(-c4ccc(N5CCN(C)CC5)cc4)c3)c(C)n2)C1=O [Example 68]", "> 1000 nM"],
  ["Cc1cc(NC(=O)N2CCN(C3CC3)C2=O)nc(C)c1Oc1ccnc(-c2cnn(C)c2)c1 [Example 71]", "100 to 1000 nM"],
  ["Cn1cnc(-c2cc(Oc3ccc(NC(=O)N4CCN(C5CCOCC5)C4=O)nc3)ccn2)c1 [Example 83]", "100 to 1000 nM"],
  ["COCCN1CCN(C(=O)Nc2ccc(Oc3ccnc(-c4cnn(C)c4)c3)cn2)C1=O [Example 10]", "> 1000 nM"],
  ["COC[C@@H](C)N1CCN(C(=O)Nc2ccc(Oc3ccnc(-c4cnn(C)c4)c3)cn2)C1=O [Example 59]", "100 to 1000 nM"],
  ["COC(C)(C)CCN1CCN(C(=O)Nc2cc(Cl)c(Oc3ccnc(-c4cnn(C)c4)c3)cc2F)C1=O [Example 108]", "> 1000 nM"],
  ["Cc1nc(NC(=O)N2CCN(C(C)(C)C)C2=O)ccc1Oc1ccnc(-c2cnn(C)c2)c1 [Example 33]", "100 to 1000 nM"],
  ["CN(C)C(=O)Nc1cc(Oc2ccc(NC(=O)N3CCN(C4CCOCC4)C3=O)nc2)ccn1 [Example 120]", "10 to 100 nM"],
  ["Cn1cc(-c2cc(Oc3cc(F)c(NC(=O)N4CCN(CC(O)C(C)(C)C)C4=O)cc3Cl)ccn2)cn1 (stereo not shown) [Example 112]", "100 to 1000 nM"],
  ["Cc1cn(-c2cc(Oc3cnc(NC(=O)N4CCN(C)C4=O)cc3C)ccn2)cn1 [Example 89]", "> 1000 nM"],
  ["CCN1CCN(C(=O)Nc2ccc(Oc3ccnc(-c4cnc(C)s4)c3)c(C)n2)C1=O [Example 70]", "> 1000 nM"],
  ["Cn1cc(-c2cc(Oc3cc(F)c(NC(=O)N4CCN(C5CCOCC5)C4=O)cc3Br)ccn2)cn1 [Example 109]", "> 1000 nM"],
  ["Cn1cc(-c2cc(Oc3ccc(NC(=O)N4CCN([C@@H]5CCOC5)C4=O)nc3)ccn2)cn1 [Example 27]", "> 1000 nM"]
]}

###

Target entity: unphosphorylated c-FMS kinase (uFMS, Seq. ID no. 1) (Homo sapiens (Human))
Test details: uFMS kinase assay (ADP production coupled to pyruvate kinase/lactate dehydrogenase)
Format: biochemical
Protocol conditions: enzymatic assay, ATP 500 μM; read-out: uFMS
IC50 reference

{"columns": ["Compound", "Target entity", "IC50"],
 "data": [
  ["Cn1cnc(-c2cc(Oc3ccc(NC(=O)N4CCN(C5CCOCC5)C4=O)nc3)ccn2)c1 [Example 83]", "unphosphorylated c-FMS kinase (uFMS, Seq. ID no. 1) (Homo sapiens (Human))", "10 to 100 nM"],
  ["Cn1cc(-c2cc(Oc3cc(F)c(NC(=O)N4CCN(C5CCOCC5)C4=O)cc3F)ccn2)cn1 [Example 91]", "unphosphorylated c-FMS kinase (uFMS, Seq. ID no. 1) (Homo sapiens (Human))", "< 10 nM"],
  ["COC[C@H](C)N1CCN(C(=O)Nc2ccc(Oc3ccnc(-c4cnn(C)c4)c3)cn2)C1=O [Example 16]", "unphosphorylated c-FMS kinase (uFMS, Seq. ID no. 1) (Homo sapiens (Human))", "< 10 nM"],
  ["Cc1ccc(-c2cc(Oc3ccc(NC(=O)N4CCN(C5CCOCC5)C4=O)nc3)ccn2)cn1 [Example 52]", "unphosphorylated c-FMS kinase (uFMS, Seq. ID no. 1) (Homo sapiens (Human))", "10 to 100 nM"],
  ["CC(=O)Nc1cc(Oc2ccc(NC(=O)N3CCN(C4CCOCC4)C3=O)nc2)ccn1 [Example 119]", "unphosphorylated c-FMS kinase (uFMS, Seq. ID no. 1) (Homo sapiens (Human))", "10 to 100 nM"],
  ["CC(=O)Nc1cc(Oc2cc(F)c(NC(=O)N3CCN(C4CCOCC4)C3=O)cc2Cl)ccn1 [Example 97]", "unphosphorylated c-FMS kinase (uFMS, Seq. ID no. 1) (Homo sapiens (Human))", "10 to 100 nM"],
  ["Cc1ncc(-c2cc(Oc3ccc(NC(=O)N4CCN(C5CCCC5)C4=O)nc3C)ccn2)s1 [Example 75]", "unphosphorylated c-FMS kinase (uFMS, Seq. ID no. 1) (Homo sapiens (Human))", "< 10 nM"],
  ["[2H]C([2H])([2H])n1cc(-c2cc(Oc3ccc(NC(=O)N4CCN(C5CCOCC5)C4=O)nc3)ccn2)cn1 [Example 6]", "unphosphorylated c-FMS kinase (uFMS, Seq. ID no. 1) (Homo sapiens (Human))", "10 to 100 nM"]
]}
